Tested on: COLO 205 colon
Assay: NCI tumour cell line growth inhibition, 48 h
Assay endpoint: TGI (µM)
Dear colleague, please return just the value in µM, with no unit written.

{"columns": ["Smiles data", "Target system", "U", "TGI"],
 "data": [
  ["O=C(Nc1ccc(Cl)cc1Cl)C1C(=O)OC2(CCCCC2)OC1=O", "COLO 205 colon", "µM", 26.7],
  ["COc1cc2c(cc1C)NC(=O)/C2=C\\c1ccc(Oc2ccccc2)cc1", "COLO 205 colon", "µM", 36.9],
  ["O=C(O)CSc1cc(NS(=O)(=O)c2ccc(Br)cc2)c2ccccc2c1O", "COLO 205 colon", "µM", 28.4],
  ["CCCCCCCCCCN=C(N)c1ccc(N2CCN(c3ccc(C(N)=NCCCCCCCCCC)cc3)CC2)cc1", "COLO 205 colon", "µM", 15.7],
  ["COc1ccc([C@@H]2[C@@H](Oc3ccccc3)C(=O)N2c2cc(OC)c(OC)c(OC)c2)cc1F", "COLO 205 colon", "µM", 0.972]
]}

TGI recorded for this compound, COc1ccc(/C=C2\C[C@H]3[C@@H]4CC=C5C[C@@H](O)CC[C@]5(C)[C@H]4CC[C@]3(C)\C2=N\O)cc1 , is 29

The compound listed as Cc1cnc2[nH]c(-c3cccc4ccccc34)cc(=O)c2c1 has a reported TGI of 0.00496

For reference, reported TGI for CCOC(=O)c1c(C)n(-c2ccc(C)cc2)c(=O)c2ccccc2c(=O)c2c(=O)ccc(=O)c1=2 stands at 36.1

Field TGI (entry C#CCCCCCC(=O)N[C@H]1C=C[C@@H]2/C=C(C)/C=C/[C@@H](C)[C@H]([C@H](C)[C@H](O)[C@@H](C)NC(C)=O)OC(=O)/C=C/C=C(C)\C=C\[C@]2(C)C1 ) reads 4.06

TGI reported for this compound C(=C\c1cc[n+](CCc2ccccc2)cc1)/c1ccccc1 : 25.6

---

System: SF-295 CNS
Assay: NCI tumour cell line growth inhibition, 48 h
Assay endpoint: GI50

Below are worked cases with known answers.
{"columns": ["Smiles data", "Target system", "Value observed"],
 "data": [
  ["COc1cc2c(cc1OCCN1CCN(CCN3C(=O)c4cccc5cccc(c45)C3=O)CC1)N=C[C@@H]1CCCN1C2=O", "SF-295 CNS", "22.9 µM"],
  ["O=C(O)CSc1cc(NS(=O)(=O)c2ccc(Br)cc2)c2ccccc2c1O", "SF-295 CNS", "16 µM"]
]}

Here is the next item to consider.
Measured GI50 (SF-295 CNS), entry CN(c1ccccc1)c1c2ccccc2nc2[nH]c3ccccc3c12 : 2.44 µM

---

System: UACC-62 melanoma
Assay: NCI tumour cell line growth inhibition, 48 h; in the data active = GI50 below about 0.43 µM; inactive = the rest
In this exercise, the only acceptable responses are active, inactive

{"columns": ["Molecule", "Qualitative label"],
 "data": [
  ["COc1ccc([C@@H]2[C@@H](Oc3ccccc3)C(=O)N2c2cc(OC)c(OC)c(OC)c2)cc1F", "active"],
  ["CN1CCN(C(=O)/C=C/c2ccc([N+](=O)[O-])o2)CC1", "inactive"],
  ["O=C1[C@H](Cc2ccc(O)cc2)N2C(=O)CCN(C(=O)NCc3ccccc3)[C@H]2CN1Cc1cccc2ccccc12", "inactive"],
  ["Oc1c(Br)cc(Cl)cc1C(c1cc(Cl)cc(Br)c1O)C(Cl)(Cl)Cl", "inactive"],
  ["CN(C)CCCC1(c2ccc(F)cc2)OCc2cc(-c3csc4ccccc34)ccc21 (centres undefined)", "inactive"]
]}

Task item: Field: outcome | Entry: C#CCCCCCC(=O)N[C@H]1C=C[C@@H]2/C=C(C)/C=C/[C@@H](C)[C@H]([C@H](C)[C@H](O)[C@@H](C)NC(C)=O)OC(=O)/C=C/C=C(C)\C=C\[C@]2(C)C1
Reply: active

Task item: Any idea what this test logged for O=C1Nc2ccc(Cl)cc2/C1=N/c1nc(-c2ccc(Cl)cc2)cs1 ?
Reply: inactive

Task item: Status in this test for CCOC(=O)c1c(Cl)c2c(n1Cc1ccccc1)-c1oncc1CCC2 ?
Reply: inactive

Task item: What classification did CCCCCCCCCCN=C(N)c1ccc(N2CCN(c3ccc(C(N)=NCCCCCCCCCC)cc3)CC2)cc1 end up with in this test?
Reply: inactive

---

System: SK-MEL-2 melanoma
Experiment: NCI tumour cell line growth inhibition, 48 h
Measured TGI accompanies every entry in the list below.
Return type: number; implicit unit µM.

{"columns": ["Compound", "Value observed"],
 "data": [
  ["CC(C)c1ccc2c(c1)CCC1C2CCCC1(C)NCc1ccccc1 (stereo not given)", 4.16]
]}

# ---- query compound ----
Record summary for C(=C\c1cc[n+](CCc2ccccc2)cc1)/c1ccccc1 : reported TGI = 55.2

---

System: SK-MEL-2 melanoma
Assay: NCI tumour cell line growth inhibition, 48 h
Assay endpoint: TGI

# example entries with known answers
{"columns": ["Compound", "TGI"],
 "data": [
  ["CC1(C)CC2=NO[Se]3=C2C(=NO3)C1", "24.8 µM"],
  ["O=S(=O)(Nc1ccccc1)c1ccc(C2CC3(Cl)C(Cl)=C(Cl)C2(Cl)C3(Cl)Cl)cc1 (stereo not given)", "4.16 µM"],
  ["O=[N+]([O-])c1ccc2c3c1[C@@H]1O[C@@H]1c1cccc(c1-3)[C@@H]1O[C@H]21", "> 23.7 µM"],
  ["O=C(CC1(O)C(=O)Nc2c(Cl)cc(Cl)cc21)c1cccc([N+](=O)[O-])c1 (stereo not given)", "> 86.3 µM"],
  ["CN(/N=C/c1ccccn1)C1=NCCN1", "> 100 µM"]
]}

Let us examine a further case.
CN(C)c1ccc(/C=c2/sc3nc(=O)c(-c4ccccc4NC(=O)C(F)(F)F)nn3c2=O)cc1 has a reported TGI of > 100 µM

---

Tested on: MOLT-4 leukemia
Assay: NCI tumour cell line growth inhibition, 48 h
# maps each entry to its TGI
Lab book: enter the figure in µM, no units written.

Sample answers from the record:
{"columns": ["Molecule", "TGI (µM)"],
 "data": [
  ["CCN(CC)c1ccc(Cl)c2c1C(O)(C(C)C)C2(C)C (stereo not given)", 35.8],
  ["COc1cc2c(cc1OCCN1CCN(CCN3C(=O)c4cccc5cccc(c45)C3=O)CC1)N=C[C@@H]1CCCN1C2=O", 62.2],
  ["COc1cc(Nc2nc3cc(C)ccc3nc2-c2ccccc2)cc(OC)c1OC", 76.6]
]}

// CC(C)(C)C1CC[C@H]2c3c([nH]c4ccccc34)[C@H]3C(=O)N(c4ccc(F)cc4)C(=O)[C@H]3[C@H]2C1 (stereo not given in full) : TGI value = 27.8

---

System: SF-268 CNS
Assay: NCI tumour cell line growth inhibition, 48 h
Assay endpoint: TGI

Consider the worked cases shown below.
{"columns": ["Molecule", "TGI"],
 "data": [
  ["COc1cc(S(=O)(=O)Nc2nc(-c3ccc(N=Cc4ccccc4O)cc3)cs2)ccc1Cl", "> 100 µM"],
  ["O=C(/C=C(\\[O-])c1ccccc1)CCCCCCC(=O)/C=C(\\[O-])c1ccccc1.O=C(/C=C(\\[O-])c1ccccc1)CCCCCCC(=O)/C=C(\\[O-])c1ccccc1.O=C(/C=C(\\[O-])c1ccccc1)CCCCCCC(=O)/C=C(\\[O-])c1ccccc1.[Y+3].[Y+3]", "> 50 µM"],
  ["C/C=C1/C=CC2c3[nH]c4ccccc4c3CCN2C1 (stereo not given)", "> 400 µM"],
  ["O=C1NC(c2ccccc2Cl)Nc2ccccc21 (stereo not given)", "> 100 µM"],
  ["CC(C)c1ccc2c(c1)CCC1C2CCCC1(C)NCc1ccccc1 (stereo not given)", "26.1 µM"],
  ["N#CC1(CCCCl)CCCCC1", "> 100 µM"],
  ["NCCc1ccc(S(=O)(=O)O)cc1[N+](=O)[O-]", "> 100 µM"],
  ["Cc1csc(=Nc2ccccc2)n1CCC(O)(P(=O)(O)O)P(=O)(O)O", "> 100 µM"],
  ["O=S(=O)(O)C(c1ccccc1)C(O)c1ccccc1 (stereo not given)", "> 100 µM"]
]}

Now for the molecule whose TGI we want.
Looking up COc1ccc(-n2c(=O)c3ccccc3n(Cc3ccc(C(=O)NO)cc3)c2=O)cc1 , I see its TGI listed as 4.25 µM

---

The molecules listed here are annotated with their TGI.
Tested on: OVCAR-3 ovarian
Test: NCI tumour cell line growth inhibition, 48 h

{"columns": ["Molecule", "Target system", "TGI"],
 "data": [
  ["C=C(C)c1nc(Oc2ccccc2)nc(Oc2ccccc2)n1", "OVCAR-3 ovarian", "15.2 µM"],
  ["CC1(C)CC(=O)C(C(=O)Nc2cccs2)=C(O)C1", "OVCAR-3 ovarian", "> 100 µM"],
  ["CC1=C(C(=O)NNC(=O)C[N+](C)(C)C)CC(C(=O)NNC(=O)C[N+](C)(C)C)=C(C)N1", "OVCAR-3 ovarian", "> 100 µM"],
  ["Nc1cc(C(F)(F)F)c(-c2nc(N3CCOCC3)nc(N3CCOCC3)n2)cn1", "OVCAR-3 ovarian", "11.2 µM"]
]}

Noted for CC1=C(C(=O)Nc2ccc3[nH]ncc3c2)C(c2ccc(F)cc2)N=C(c2ccc(C(F)(F)F)nc2)N1 (stereo not given) : its TGI reads > 25 µM

Note to self: TGI recorded for CN(C)CCCC1(c2ccc(F)cc2)OCc2cc(-c3csc4ccccc34)ccc21 (stereo not given) was 3.26 µM

Looking up CCOC(OCC)(OCC)C(Br)CC (stereo not given) , I found its TGI recorded as > 100 µM
